SYSTEM TESTED: IRAK1 (Homo sapiens (Human))
Sequence (P51617 194-712): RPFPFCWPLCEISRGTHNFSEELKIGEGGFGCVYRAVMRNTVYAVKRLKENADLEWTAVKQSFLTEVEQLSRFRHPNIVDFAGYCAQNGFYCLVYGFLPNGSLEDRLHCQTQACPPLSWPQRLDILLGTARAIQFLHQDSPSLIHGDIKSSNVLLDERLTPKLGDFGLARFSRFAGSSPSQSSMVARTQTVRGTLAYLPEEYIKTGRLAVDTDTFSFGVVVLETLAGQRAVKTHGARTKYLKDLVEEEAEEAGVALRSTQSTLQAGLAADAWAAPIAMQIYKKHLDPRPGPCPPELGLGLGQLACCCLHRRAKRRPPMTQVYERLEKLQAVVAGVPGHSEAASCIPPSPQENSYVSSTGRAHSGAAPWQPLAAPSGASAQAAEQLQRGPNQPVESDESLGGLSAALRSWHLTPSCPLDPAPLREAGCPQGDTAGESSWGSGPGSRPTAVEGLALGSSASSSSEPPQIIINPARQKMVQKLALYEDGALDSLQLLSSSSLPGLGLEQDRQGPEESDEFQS
ASSAY REMARKS: IRAK1 enzymatic assay
Format: biochemical
TEST CONTEXT: human recombinant His-TEV-IRAK1, ATP 1 μM, FlashPlate
pIC50: −log10 of the molar value.
Answer each item with its documented pIC50.

These recorded examples may help you get a feel for the data.
O=C(Nc1nc2ccccc2[nH]1)c1cccc(Cn2nc(-c3cncnc3)ccc2=O)c1
6.00 to 7.00
COc1ccc2[nH]c(NC(=O)c3cccc(Cn4nc(-c5cccnc5)ccc4=O)c3)nc2c1
> 7.00

For each of the items listed, what is its pIC50?
1. Cc1cc(-c2ccc(=O)n(Cc3cccc(C(=O)Nc4nc5ccccc5[nH]4)c3)n2)cnn1
2. O=C(Nc1nc2cc(CO)ccc2[nH]1)c1cccc(Cn2nc(-c3cccnc3)ccc2=O)c1

Out:
1: 6.00 to 7.00; 2: > 7.00

====

SYSTEM TESTED: IRAK4 (Homo sapiens (Human))
Sequence (Q9NWZ3 whole entry): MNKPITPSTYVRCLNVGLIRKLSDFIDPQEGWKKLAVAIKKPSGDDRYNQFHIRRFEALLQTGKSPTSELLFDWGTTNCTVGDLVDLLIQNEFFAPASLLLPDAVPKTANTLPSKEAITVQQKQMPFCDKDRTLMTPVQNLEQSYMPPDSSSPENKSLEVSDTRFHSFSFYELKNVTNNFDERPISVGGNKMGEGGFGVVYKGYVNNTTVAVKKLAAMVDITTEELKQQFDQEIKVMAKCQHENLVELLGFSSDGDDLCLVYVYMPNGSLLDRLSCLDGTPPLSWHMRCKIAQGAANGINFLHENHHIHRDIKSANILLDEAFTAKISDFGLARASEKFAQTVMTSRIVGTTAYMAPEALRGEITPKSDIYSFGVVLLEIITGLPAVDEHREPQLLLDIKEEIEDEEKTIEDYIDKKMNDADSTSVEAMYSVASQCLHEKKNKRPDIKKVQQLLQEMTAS
ASSAY REMARKS: IRAK4 enzymatic assay
TEST CONTEXT: human recombinant His-TEV-IRAK4, ATP 2 μM, STK1-biotin peptide, FlashPlate
METRIC: IC50

These recorded examples may help you get a feel for the data.
CC(C)(C)C(=O)Oc1ccc2[nH]c(NC(=O)c3cccc(Cn4nc(-c5cccnc5)ccc4=O)c3)nc2c1
< 100 nM
O=C(Nc1nc2ccccc2[nH]1)c1cccc(Cn2nc(-c3cncc(CO)c3)ccc2=O)c1
< 100 nM
Nc1ccc(-c2ccc(=O)n(Cc3cccc(C(=O)Nc4nc5ccccc5[nH]4)c3)n2)cn1
< 100 nM
Cc1ccncc1-c1ccc(=O)n(Cc2cccc(C(=O)Nc3nc4ccccc4[nH]3)c2)n1
100 to 1000 nM
O=C(Nc1nc2ccccc2[nH]1)c1cccc(Cn2nc(-c3ccc(CO)nc3)ccc2=O)c1
< 100 nM
COc1cc2nc(NC(=O)c3cccc(Cn4nc(-c5cccnc5)ccc4=O)c3)[nH]c2cc1OC
< 100 nM

For each of the items listed, what is its IC50?
1. COc1ccc2[nH]c(NC(=O)c3cccc(Cn4nc(-c5cccnc5)ccc4=O)c3)nc2c1
2. Cc1cc(-c2ccc(=O)n(Cc3cccc(C(=O)Nc4nc5ccccc5[nH]4)c3)n2)cnn1

Out:
["100 to 1000 nM", "100 to 1000 nM"]

For each of the items listed, what is its IC50?
1. O=C(Nc1nc2cc(CO)ccc2[nH]1)c1cccc(Cn2nc(-c3cccnc3)ccc2=O)c1
2. CN(C)Cc1cncc(-c2ccc(=O)n(Cc3cccc(C(=O)Nc4nc5ccccc5[nH]4)c3)n2)c1
3. CN(C)C(=O)Cc1ccc2[nH]c(NC(=O)c3cccc(Cn4nc(-c5cccnc5)ccc4=O)c3)nc2c1
4. O=C(Nc1nc2ccccc2[nH]1)c1cccc(Cn2nc(-c3cccnc3)ccc2=O)c1
5. COC(=O)c1ccc2[nH]c(NC(=O)c3cccc(Cn4nc(-c5cccnc5)ccc4=O)c3)nc2c1
6. Cn1c(NC(=O)c2cccc(Cn3nc(-c4cccnc4)ccc3=O)c2)nc2ccccc21
7. O=C(Nc1nc2ccccc2[nH]1)c1cccc(Cn2nc(-c3cncnc3)ccc2=O)c1

Out:
1: < 100 nM; 2: 1000 to 5000 nM; 3: < 100 nM; 4: 100 to 1000 nM; 5: 1000 to 5000 nM; 6: 1000 to 5000 nM; 7: 100 to 1000 nM

// recorded IC50 for CN(C)Cc1ccc(-c2ccc(=O)n(Cc3cccc(C(=O)Nc4nc5ccccc5[nH]4)c3)n2)cn1 : 1000 to 5000 nM

====

SYSTEM TESTED: IRAK1 (Homo sapiens (Human))
ASSAY REMARKS: IRAK1 enzymatic assay
TEST CONTEXT: human recombinant His-TEV-IRAK1, ATP 1 μM, FlashPlate
pIC50: −log10 of the molar value.
METRIC: pIC50

COc1cc2nc(NC(=O)c3cccc(Cn4nc(-c5cccnc5)ccc4=O)c3)[nH]c2cc1OC
6.00 to 7.00

For each of the items listed, what is its pIC50?
1. O=C(Nc1nc2ccccc2[nH]1)c1cccc(Cn2nc(-c3cncc(CO)c3)ccc2=O)c1
2. CC(C)(C)C(=O)Oc1ccc2[nH]c(NC(=O)c3cccc(Cn4nc(-c5cccnc5)ccc4=O)c3)nc2c1
3. CN(C)C(=O)Cc1ccc2[nH]c(NC(=O)c3cccc(Cn4nc(-c5cccnc5)ccc4=O)c3)nc2c1
4. Cc1cc(=O)n(Cc2cccc(C(=O)Nc3nc4ccccc4[nH]3)c2)nc1-c1cccnc1
5. O=C(Nc1nc2ccccc2[nH]1)c1cccc(Cn2nc(-c3cccnc3)ccc2=O)c1
6. CN(C)Cc1ccc(-c2ccc(=O)n(Cc3cccc(C(=O)Nc4nc5ccccc5[nH]4)c3)n2)cn1
7. Nc1ccc(-c2ccc(=O)n(Cc3cccc(C(=O)Nc4nc5ccccc5[nH]4)c3)n2)cn1

Out:
["> 7.00", "6.00 to 7.00", "> 7.00", "6.00 to 7.00", "> 7.00", "5.30 to 6.00", "> 7.00"]

Where do the numbers come from? From patent US9567320B2.
